# tested_target: Gal3S(b1-4)Glc
# assay: glycan array binding signal (z-score within array); higher = stronger binding
# assay_setup: glycan notation: IUPAC condensed, linker removed
This excerpt belongs to a sample that is enriched for the strongest signals.
Note to self: values exactly at -0.2 are TRUE. So glycan array binding signal (z-score) at or above -0.2 is TRUE, below is FALSE.

binder | assigned_class
FGF1 (Homo sapiens), P05230 (protein) MAEGEITTFTALTEKFNLPPGNYKKPKLLYSNGGHFLRILPDGTVDGTRDRSDQHIQLQLSAESVGEVYIKSTETGQYLAMTDGLLYGSQTPNEECLFLERLEENHYNTYISKHAEKNWFVGLKKNGSCKRGPRTHYGQAILFLPLPASSED | TRUE
DC-ASGPR Long (Homo sapiens) (protein) MTRTYENFQYLENKVKVQGFKNGPLPLQSLLQRLRSGPCHLLLSLGLGLLLLVIICVVGFQNSKFQRDLVTLRTDFSNFTSNTVAEIQALTSQGSSLEETIASLKAEVEGFKQERQAGVSELQEHTTQKAHLGHCPHCPSVCVPVHSEMLLRVQQLVQDLKKLTCQVATLNNNASTEGTCCPVNWVEHQDSCYWFSHSGMSWAEAEKYCQLKNAHLVVINSREEQNFVQKYLGSAYTWMGLSDPEGAWKWVDGTDYATGFQNWKPGQPDDWQGHGLGGGEDCAHFHPDGGWNDDVCQRPYHWVCEAGLGQTSQESH | TRUE
SP15308C-bot-338-23-338 (Bacteroides ovatus) (protein) DEWTDEQFKQLISFKTQPGGWGVTDVHVRYANSAKYTYNLPVLVSGSTDNTDDRLVSFSLRDDTLDILNFEKFGNRPELYFRELPQKYYSFPKELTIPAGQSHALLPIEFSLDGLDDSQKWALPLKVCEDANGTYAVNPRKYYRTAVLRPILFNEFSGRFSGSSLLGTMAGESDIKFSSTEIKLNVVTDSIVFFYAGQRTEDYEDRINYKVFLQFTGDKVDSKKDLYKMKIWAENEKLKFNSYSTPTYKVSSEMDATKTYLKHTYIVISDIDFDFVDYTSVPNYEIEYNMKGGLSVSRDLDTRKPDEDQGSDSKWW | FALSE
RegIIIalpha (Mus musculus), O09037 (protein) MLPHLVLNSISWMLLSCLLFVFQVQGEDFQKEVPSPRTSCPMGYKAYRSHCYALVMTPKSWFQADLVCQKRPSGHLVSILSGGEASFVSSLVNGRVDNYQDIWIGLHDPTMGQQPNGGGWEWSNSDVLNYLNWDGDPSSTVNRGHCGSLTASSGFLKWGDYYCDGTLPFVCKFKQ | TRUE

Next, consider the following binder.
Ask: Given the entry GSL-I-B4 (Griffonia simplicifolia) (protein) NFWSDVEDSIIFQGDANTTAGTLQLCKTNQYGTPLQWSAGRALYSDPVQLWDNKTESVASFYTEFTFFLKITGNGPADGLAFFLAPPDSDVKDAGEYLGLFNKSTATQPSKNQVVAVEFDTWTNPNFPEPSYRHIGINVNSIVSVATKRWEDSDIFSGKIATARISYDGSAEILTVVLSYPDGSDYILSHSVDMRQNLPESVRVGISASTGNNQFLTVYILSWRFSSNLQSTSVKAAMEPEITRTVV , answer whether its glycan array binding signal (z-score) meets or surpasses -0.2.
Reply: TRUE
